Source of measurements: paper PMC12716008

Hi there, I'd appreciate the recorded MIC for every entry that follows.
System: Mycobacterium tuberculosis H37Rv (ATCC 27264)
assayInfo: Antimycobacterial activity, microtitre Alamar Blue/Presto Blue assay (MIC)
Assay type: cell-based
conditionsUsed: 120 h, M. tuberculosis H37Rv, 5 days, 37°C, read-out: M. tb MIC
Use µM as the unit, but write only the number.

The recorded MIC for entry CC(C)CCOC(=O)c1ccc2cccc(OCCC(C)C)c2n1 [QD‐11] equals 100

For CCCCCOc1cccc2cccnc12 [QD‐1] the compound record lists MIC as 100

compound CC(C)=CCOc1cccc2ccc(C=O)nc12 [QD‐12] , MIC observed: 100

For this compound ( CCCCCOc1cccc2ccc(C)nc12 [QD‐7] ), measured MIC is 100

For NNC(=O)c1ccncc1 [Isoniazid, reference compound] the compound record lists MIC as 0.3

Per the record, CC(C)=CCOc1c(Cl)cc(Cl)c2ccc(C)nc12 [QD‐6] has MIC of 100

Reported MIC for CCCCCOC(=O)c1ccc2cccc(OCCCCC)c2n1 [QD‐10] was 100

Entry Cc1ccc2cccc(OCCC(C)C)c2n1 [QD‐8] , MIC reported as 100

# MIC (compound: CC(C)=CCOc1cccc2ccc(C)nc12 [QD‐9] ) is 100

# compound Cc1ccc2c(Cl)cc(Cl)c(O)c2n1 [HQ‐2, 5,7‐dichloro‐8‐hydroxy‐2‐methylquinoline, reference compound] ; its MIC = 0.1

Reported MIC for CC(C)=CCOc1cccc2cccnc12 [QD‐3] was 100

###

Tested on: African green monkey kidney (Vero) cell line
assayInfo: Cytotoxicity, Presto Blue cell viability
Assay type: cell-based
conditionsUsed: Vero cells, 72 h; read-out: Vero IC50 ± SD
assayEndpoint: IC50

Field IC50 (entry Cc1ccc2c(Cl)cc(Cl)c(O)c2n1 [HQ‐2, 5,7‐dichloro‐8‐hydroxy‐2‐methylquinoline, reference compound] ) reads 82.8 µM

###

Test system: Mycobacterium smegmatis (MC^2 155)
assayInfo: Antimycobacterial activity, microtitre Alamar Blue/Presto Blue assay (MIC)
Type: cell-based
conditionsUsed: Mycolicibacterium smegmatis, MC^2155; M. smegmatis, 24 h, 37°C; read-out: M. smeg MIC
Exercise: for every item that follows, state its recorded MIC.

response.value for CCCCCOC(=O)c1ccc2cccc(OCCCCC)c2n1 (field: MIC) = > 100 µM

// sample Cc1ccc2c(Cl)cc(Cl)c(O)c2n1 [HQ‐2, 5,7‐dichloro‐8‐hydroxy‐2‐methylquinoline, reference compound] , its MIC was 1.56 µM

Item: CC(C)=CCOc1cccc2cccnc12 | MIC: > 100 µM

// sample Cc1ccc2c(Cl)cc(Cl)c(OCCC(C)C)c2n1 , its MIC was > 100 µM

So, CCCCCOc1cccc2cccnc12 ? Its MIC was > 100 µM

###

System: human monocyte (U937) cell line
assayInfo: Cytotoxicity, Presto Blue cell viability
Type: cell-based
conditionsUsed: U-937, 72 h, read-out: U937 IC50 ± SD, U937 cells, 72 h
pIC50: −log10 of the molar value.
assayEndpoint: pIC50

Record summary for Cc1ccc2cccc(O)c2n1 [HQ‐3, 2‐methyl‐8‐hydroxyquinoline, reference compound] : reported pIC50 = < 4.00

###

Test system: Mycobacterium smegmatis (MC^2 155)
assayInfo: Antimycobacterial activity, microtitre Alamar Blue/Presto Blue assay (MIC)
Assay type: cell-based
conditionsUsed: Mycolicibacterium smegmatis, MC^2155; M. smegmatis, 24 h, 37°C; read-out: M. smeg MIC
assayEndpoint: MIC

// field: MIC; key: CC(C)=CCOc1cccc2ccc(C=O)nc12 [QD‐12] ; value = 100 µM

// field: MIC; key: CC(C)=CCOc1c(Cl)cc(Cl)c2ccc(C)nc12 [QD‐6] ; value = > 100 µM

get_value(item= CC(C)CCOC(=O)c1ccc2cccc(OCCC(C)C)c2n1 [QD‐11] , readout=MIC) returns > 100 µM

Record CCCCCOc1c(Cl)cc(Cl)c2ccc(C)nc12 [QD‐4] , field MIC: > 100 µM

Value of measured MIC for the entry Cc1ccc2cccc(OCCC(C)C)c2n1 [QD‐8] : > 100 µM

Entry CC(C)=CCOc1cccc2ccc(C)nc12 [QD‐9] , MIC reported as > 100 µM

MIC in this record for CCCCCOc1cccc2ccc(C)nc12 [QD‐7] : > 100 µM

// sample O=C(O)c1cn(C2CC2)c2cc(N3CCNCC3)c(F)cc2c1=O [Ciprofloxacin, reference compound] , its MIC was 0.6 µM

According to the records, this compound CC(C)CCOc1cccc2cccnc12 [QD‐2] displays MIC of > 100 µM
